# Target Under Test: T1, TNFR1 (Homo sapiens, UniProt P19438)
# T1 chain: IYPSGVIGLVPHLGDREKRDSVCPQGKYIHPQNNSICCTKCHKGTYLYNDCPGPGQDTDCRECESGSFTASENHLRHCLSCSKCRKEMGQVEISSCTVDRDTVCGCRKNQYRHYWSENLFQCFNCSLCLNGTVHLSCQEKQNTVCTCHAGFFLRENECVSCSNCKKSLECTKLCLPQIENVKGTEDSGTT
# Assay Explanation: yeast display SC50
Listing: apparent Kd (screen) of selected binders
// units = nM; emit number, no label

Observe how each entry below is paired with its result.
[[record]]
binder = "R92E (designed binder) MTLQELLREEALRRAEAEAFRYALELLAEKFPEQKEYLLDLAEEIESQIRSLSGVDVEDVRKFLDKEWAWVKELLAEHPAELAEVEAARAAELAELRAEVEAKVAA"
endpoint_value = 1.05

[[record]]
binder = "R13W (designed binder) MTLQELLREEALWRAEAEAFRYALELLAEKFPEQKEYLLDLAEEIESQIRSLSGVDVEDVRKFLDKEWAWVKELLAEHPAELAEVEAARAARLAELRAEVEAKVAA"
endpoint_value = 0.252

[[record]]
binder = "P32K (designed binder) MTLQELLREEALRRAEAEAFRYALELLAEKFKEQKEYLLDLAEEIESQIRSLSGVDVEDVRKFLDKEWAWVKELLAEHPAELAEVEAARAARLAELRAEVEAKVAA"
endpoint_value = 0.653


Prompt line: apparent Kd (screen) lookup needed for V55T (designed binder) MTLQELLREEALRRAEAEAFRYALELLAEKFPEQKEYLLDLAEEIESQIRSLSGTDVEDVRKFLDKEWAWVKELLAEHPAELAEVEAARAARLAELRAEVEAKVAA , thanks.
Response line: 0.718
